Read-out: Tissue Factor, F3 (gene 2152)
Assay: BSK_LPS_TissueFactor: BioMAP Diversity Plus: LPS Assay for Tissue Factor Biomarker Activity (AID 2283084)
Conditions: primary human HUVEC with PBMC; actives raise or lower the signal
Active and inactive are the calls of the source. The calls were made as follows: active = hit-call score of the fitted dose curve at least 0.9, where 1 is the maximum; inactive = score below 0.9.
ASSAY_ENDPOINT: AC50

Worked examples follow.
N#CN    inactive
CN1CSC(=S)N(C)C1    13.7 µM (active)
CCOC1Oc2ccc(OS(C)(=O)=O)cc2C1(C)C (stereo not given)    inactive
O=C(O)CCCOc1ccc(Cl)cc1Cl    inactive

Need AC50, item CCCN(CCC)c1c([N+](=O)[O-])cc(C(F)(F)F)cc1[N+](=O)[O-]
inactive

###

Assay: BSK_3C_Proliferation: Cell Proliferation Assessment in the BioMAP Diversity Plus: 3C Assay (AID 2283006)
Conditions: primary human endothelial cells (HUVEC)
Active and inactive are the calls of the source. How the source made its calls: active means hit-call score of the fitted dose curve at least 0.9, where 1 is the maximum; inactive means score below 0.9.
Your answer must be one of the following: 1 (yes) for active, 0 (no) for inactive

CC(C)N(C(=O)COc1nnc(C(F)(F)F)s1)c1ccc(F)cc1    0 (no)

Per the records of this test, what outcome belongs to CNC(=O)CSP(=S)(OC)OC ?
0 (no)

Per the records of this test, what outcome belongs to CC[C@H](C)[C@H]1O[C@]2(C=C[C@@H]1C)C[C@@H]1C[C@@H](C/C=C(\C)[C@@H](O[C@H]3C[C@H](OC)[C@@H](O[C@H]4C[C@H](OC)[C@@H](O)[C@H](C)O4)[C@H](C)O3)[C@@H](C)/C=C/C=C3\CO[C@@H]4[C@H](O)C(C)=C[C@@H](C(=O)O1)[C@]34O)O2 (tested in a mixture with another compound) ?
1 (yes)

Per the records of this test, what outcome belongs to Cc1[nH]c(=O)n(C(C)(C)C)c(=O)c1Cl ?
0 (no)

Per the records of this test, what outcome belongs to O=[N+]([O-])/N=C1\NCCN1Cc1ccc(Cl)nc1 ?
0 (no)

Per the records of this test, what outcome belongs to O=S1OCC2C(CO1)C1(Cl)C(Cl)=C(Cl)C2(Cl)C1(Cl)Cl (stereo not drawn) ?
1 (yes)

Per the records of this test, what outcome belongs to CCN(CC)C(=O)SCc1ccc(Cl)cc1 ?
0 (no)

Per the records of this test, what outcome belongs to CCOCN(C(=O)CCl)c1c(C)cccc1CC ?
1 (yes)

###

Read-out: glucuronosyltransferase (UGT1A1), UGT1A1 (gene 54658)
Assay: CLD_UGT1A1_48hr: CellzDirect (CLD) Gene Expression Assay for glucuronosyltransferase (UGT1A1) at 48 hours (AID 2283709);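 also: actives increase expression relative to DMSO so potency refers to induction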
Records with an inconclusive call do not appear. Activity calls are given as the source filed them. Rule for the calls: active = hit-call score of the fitted dose curve at least 0.9, where 1 is the maximum; inconclusive = response in the unintended direction; inactive = score below 0.9.
Your answer must be one of the following: 1 = active, 0 = inactive

Record excerpt, results attached:
COC(=O)c1ccccc1S(=O)(=O)NC(=O)Nc1nc(C)nc(OC)n1    0
O=C(O)COc1ccc(Cl)cc1Cl    0
ClC1C(Cl)C(Cl)C(Cl)C(Cl)C1Cl (configuration not stated)    0
O=S(=O)(O)C(F)(F)C(F)(F)C(F)(F)C(F)(F)C(F)(F)C(F)(F)C(F)(F)C(F)(F)F    0
Cc1[nH]c(=O)n(C(C)(C)C)c(=O)c1Cl    0

Per the records of this test, what outcome belongs to COC(=O)c1ccccc1S(=O)(=O)NC(=O)N(C)c1nc(C)nc(OC)n1 ?
0

Per the records of this test, what outcome belongs to O=C(Nc1ccccc1)Nc1cnns1 ?
1
